assay: HepG2 cytotoxicity, primary screen, cytotoxicity control for P. falciparum antimalarial project, cell-based, ATP luminescence (AID 2303); details: HepG2 viability, 24-48 h, at 10 µM, hits give high values;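 also: 0% = DMSO wells and 100% = digitonin-killed cells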
testReadout: inhibition (%)
Expressed in %, but write only the number.

NC(N)=NC(=O)Nc1cc(Br)c(Br)c(Br)c1 ... 0
O=C(Nc1cccc(CN2CCCN(CCc3ccccc3)CC2)c1)c1ccc(Cl)c(Cl)c1 ... 41
CCOc1cc(C(=O)NCCN(CC)c2cccc(C)c2)ccc1-c1nc2ccc(Cl)cc2[nH]1 ... -1

Query string: Input Cc1cc(C(=O)Nc2ccc(C)c(-c3nc(N(C(=O)c4ccc(F)c(C)c4)C4CCNCC4)nc4c3ccc(=O)n4-c3c(F)cccc3F)c2)ccc1F , output reported inhibition.
Result string: 4

Query string: Please give measured inhibition of the following entry: COc1ccc(-c2nonc2NC(=O)c2ccc(OC(C)C)cc2)cc1OC
Result string: 11

Query string: Please report inhibition for the following compound: CN1CCN(Cc2ccc(-c3ccc4c(Nc5cc(O)c(F)cc5Cl)ccnc4c3)o2)CC1
Result string: 27

Query string: Identify measured inhibition associated with Cc1ccc(NC(=O)c2cccc(C#N)c2)cc1-c1ccc(C(=O)Nc2ccncc2)cc1
Result string: 38

Query string: Dear colleague, please send me the reported inhibition for CCCOC(=O)C1=C(C)NC2=C(C(=O)CC(c3ccc(OC)c(OC)c3)C2)C1c1cccc(O)c1 (centres undefined) when you can.
Result string: -10

Query string: Could you please provide reported inhibition for CC(CN1CCN(C)CC1)C(=O)Nc1ccc(-c2cccc(-c3nc4ccc(C(F)(F)F)cc4[nH]3)c2)cc1 (centres undefined) ? Thanks!
Result string: 16
